- Measured Target: Bifunctional dihydrofolate reductase-thymidylate synthase (Plasmodium falciparum (isolate K1 / Thailand))
- Test Description: Inhibition of the wild-type dihydrofolate reductase (DHFR)
Quantity Name: pKi
pKi is defined as minus the log10 of a concentration measured in mol/L.

Here's what some known entries look like.
CCc1nc(N)nc(N)c1-c1ccc(OCc2ccc(Cl)cc2Cl)c(OC)c1 : 9.00
Cc1nc(N)nc(N)c1-c1ccccc1 : 7.96
COc1cc(Cc2cnc(N)nc2N)ccc1OCc1cc(OC)c(OC)c(OC)c1 : 9.22
CCc1nc(N)nc(N)c1-c1ccc(Cl)cc1Cl : 7.90
CCc1nc(N)nc(N)c1-c1ccc(C(C)(C)C)cc1 : 9.22

Kindly consider the entry below.
For the compound Cc1nc(N)nc(N)c1-c1ccc(Cl)cc1 , give its measured pKi value. 8.70

----------
- Measured Target: Bifunctional dihydrofolate reductase-thymidylate synthase (Plasmodium falciparum (isolate K1 / Thailand), UniProt P13922)
- Sequence (P13922 whole entry): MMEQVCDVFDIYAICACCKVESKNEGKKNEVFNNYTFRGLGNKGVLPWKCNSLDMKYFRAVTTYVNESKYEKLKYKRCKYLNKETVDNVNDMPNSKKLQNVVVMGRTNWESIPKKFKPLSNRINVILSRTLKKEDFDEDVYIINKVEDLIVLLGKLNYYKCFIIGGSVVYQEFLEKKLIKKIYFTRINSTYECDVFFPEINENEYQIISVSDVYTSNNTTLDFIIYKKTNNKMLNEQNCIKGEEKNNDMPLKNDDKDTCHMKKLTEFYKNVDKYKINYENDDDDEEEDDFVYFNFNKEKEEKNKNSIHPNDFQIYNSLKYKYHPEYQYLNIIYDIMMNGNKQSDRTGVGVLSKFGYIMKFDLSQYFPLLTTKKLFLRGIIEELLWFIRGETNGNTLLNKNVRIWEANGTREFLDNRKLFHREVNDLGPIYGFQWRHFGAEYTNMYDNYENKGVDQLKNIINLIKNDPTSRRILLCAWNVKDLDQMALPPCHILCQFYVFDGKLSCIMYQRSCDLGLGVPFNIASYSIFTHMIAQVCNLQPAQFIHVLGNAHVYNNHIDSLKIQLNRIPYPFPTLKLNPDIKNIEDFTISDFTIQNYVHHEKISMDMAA
- Test Description: Inhibition of the wild-type dihydrofolate reductase (DHFR)
Listed here are compounds together with their documented pKi.
pKi is defined as minus the log10 of a concentration measured in mol/L.

Here's what some known entries look like.
COc1cc(COc2cc(Cc3cnc(N)nc3N)ccc2OCc2ccccc2)cc(OC)c1OC : 7.92
Nc1ncc(-c2cccc(Cl)c2)c(N)n1 : 8.20

Kindly consider the entry below.
For the compound CCOc1c(Br)cc(-c2c(N)nc(N)nc2CC)cc1Br , give its measured pKi value. 8.15
